assay: Half life in mouse at 2 mg/kg, iv; type: ADME, organism-based; details: in vivo
reported_metric: half-life (h)
Enter your answer as a number in h; do not include the unit.

Answered examples (3):
CCc1nc2ccc(Cl)cn2c1C(=O)NCc1ccc(N2CCC(Oc3ccc(C(F)(F)F)cc3)CC2)cc1    19.6
CCc1nc2cc(Cl)ccn2c1C(=O)NCc1ccc(OCc2ccc(OC(F)(F)F)cc2)cc1    13.9
CCc1nc2ccc(F)cn2c1C(=O)NCc1ccc(OCc2ccc(OC(F)(F)F)cc2)cc1    11

Query compound follows.
Query: half-life; subject: CCc1nc2ccc(Cl)cn2c1C(=O)NCc1ccc(N2CCC(Oc3ccc(Cl)cc3)CC2)cc1 14.1
